Source: patent US20210301025A1

molecular target: EGFR (form used in the assay not stated) (human, UniProt P00533 25-645, limits assumed); test: ELISA, NEM conjugate, 500 nM
Item-by-item account of binding relative to P54AR4-83v2 parent

{"columns": ["binder", "binding relative to P54AR4-83v2 parent, ratio"],
 "data": [
  ["P54AR4-83v2 E43C, NEM conjugate (designed binder, not shown: small tags and cut ends, N-ethyl maleimide (NEM) on Cys 43) LPAPKNLVVSEVTEDSARLSWDDPWAFYESFLIQYQESEKVGCAIVLTVPGSERSYDLTGLKPGTEYTVSIYGVHNVYKDTNMRGLPLSAIFTT", 0.92],
  ["P54AR4-83v2 G51C, NEM conjugate (designed binder, not shown: small tags and cut ends, N-ethyl maleimide (NEM) on Cys 51) LPAPKNLVVSEVTEDSARLSWDDPWAFYESFLIQYQESEKVGEAIVLTVPCSERSYDLTGLKPGTEYTVSIYGVHNVYKDTNMRGLPLSAIFTT", 0.92],
  ["P54AR4-83v2 Y72C, NEM conjugate (designed binder, not shown: small tags and cut ends, N-ethyl maleimide (NEM) on Cys 72) LPAPKNLVVSEVTEDSARLSWDDPWAFYESFLIQYQESEKVGEAIVLTVPGSERSYDLTGLKPGTEYTVSICGVHNVYKDTNMRGLPLSAIFTT", 0.93],
  ["P54AR4-83v2 N76C, NEM conjugate (designed binder, not shown: small tags and cut ends, N-ethyl maleimide (NEM) on Cys 76) LPAPKNLVVSEVTEDSARLSWDDPWAFYESFLIQYQESEKVGEAIVLTVPGSERSYDLTGLKPGTEYTVSIYGVHCVYKDTNMRGLPLSAIFTT", 0.91],
  ["P54AR4-83v2 S20C, NEM conjugate (designed binder, not shown: small tags and cut ends, N-ethyl maleimide (NEM) on Cys 20, also called 520C) LPAPKNLVVSEVTEDSARLCWDDPWAFYESFLIQYQESEKVGEAIVLTVPGSERSYDLTGLKPGTEYTVSIYGVHNVYKDTNMRGLPLSAIFTT", 0.91],
  ["P54AR4-83v2 A3C, NEM conjugate (designed binder, not shown: small tags and cut ends, N-ethyl maleimide (NEM) on Cys 3) LPCPKNLVVSEVTEDSARLSWDDPWAFYESFLIQYQESEKVGEAIVLTVPGSERSYDLTGLKPGTEYTVSIYGVHNVYKDTNMRGLPLSAIFTT", 0.82],
  ["P54AR4-83v2 T13C, NEM conjugate (designed binder, not shown: small tags and cut ends, N-ethyl maleimide (NEM) on Cys 13) LPAPKNLVVSEVCEDSARLSWDDPWAFYESFLIQYQESEKVGEAIVLTVPGSERSYDLTGLKPGTEYTVSIYGVHNVYKDTNMRGLPLSAIFTT", 0.9],
  ["P54AR4-83v2 T68C, NEM conjugate (designed binder, not shown: small tags and cut ends, N-ethyl maleimide (NEM) on Cys 68, not used) LPAPKNLVVSEVTEDSARLSWDDPWAFYESFLIQYQESEKVGEAIVLTVPGSERSYDLTGLKPGTEYCVSIYGVHNVYKDTNMRGLPLSAIFTT", 0.95],
  ["P54AR4-83v2 E11C, NEM conjugate (designed binder, not shown: small tags and cut ends, N-ethyl maleimide (NEM) on Cys 11) LPAPKNLVVSCVTEDSARLSWDDPWAFYESFLIQYQESEKVGEAIVLTVPGSERSYDLTGLKPGTEYTVSIYGVHNVYKDTNMRGLPLSAIFTT", 0.95],
  ["P54AR4-83v2 D15C, NEM conjugate (designed binder, not shown: small tags and cut ends, N-ethyl maleimide (NEM) on Cys 15) LPAPKNLVVSEVTECSARLSWDDPWAFYESFLIQYQESEKVGEAIVLTVPGSERSYDLTGLKPGTEYTVSIYGVHNVYKDTNMRGLPLSAIFTT", 0.97],
  ["P54AR4-83v2 P4C, NEM conjugate (designed binder, not shown: small tags and cut ends, N-ethyl maleimide (NEM) on Cys 4) LPACKNLVVSEVTEDSARLSWDDPWAFYESFLIQYQESEKVGEAIVLTVPGSERSYDLTGLKPGTEYTVSIYGVHNVYKDTNMRGLPLSAIFTT", 0.12],
  ["P54AR4-83v2 R18C, NEM conjugate (designed binder, not shown: small tags and cut ends, N-ethyl maleimide (NEM) on Cys 18) LPAPKNLVVSEVTEDSACLSWDDPWAFYESFLIQYQESEKVGEAIVLTVPGSERSYDLTGLKPGTEYTVSIYGVHNVYKDTNMRGLPLSAIFTT", 0.94],
  ["P54AR4-83v2 S10C, NEM conjugate (designed binder, not shown: small tags and cut ends, N-ethyl maleimide (NEM) on Cys 10) LPAPKNLVVCEVTEDSARLSWDDPWAFYESFLIQYQESEKVGEAIVLTVPGSERSYDLTGLKPGTEYTVSIYGVHNVYKDTNMRGLPLSAIFTT", 0.96],
  ["P54AR4-83v2 I45C, NEM conjugate (designed binder, not shown: small tags and cut ends, N-ethyl maleimide (NEM) on Cys 45) LPAPKNLVVSEVTEDSARLSWDDPWAFYESFLIQYQESEKVGEACVLTVPGSERSYDLTGLKPGTEYTVSIYGVHNVYKDTNMRGLPLSAIFTT", 0.93],
  ["P54AR4-83v2 S70C, NEM conjugate (designed binder, not shown: small tags and cut ends, N-ethyl maleimide (NEM) on Cys 70, also called 570C) LPAPKNLVVSEVTEDSARLSWDDPWAFYESFLIQYQESEKVGEAIVLTVPGSERSYDLTGLKPGTEYTVCIYGVHNVYKDTNMRGLPLSAIFTT", 0.93],
  ["P54AR4-83v2 P87C, NEM conjugate (designed binder, not shown: small tags and cut ends, N-ethyl maleimide (NEM) on Cys 87) LPAPKNLVVSEVTEDSARLSWDDPWAFYESFLIQYQESEKVGEAIVLTVPGSERSYDLTGLKPGTEYTVSIYGVHNVYKDTNMRGLCLSAIFTT", 0.91],
  ["P54AR4-83v2 L86C, NEM conjugate (designed binder, not shown: small tags and cut ends, N-ethyl maleimide (NEM) on Cys 86) LPAPKNLVVSEVTEDSARLSWDDPWAFYESFLIQYQESEKVGEAIVLTVPGSERSYDLTGLKPGTEYTVSIYGVHNVYKDTNMRGCPLSAIFTT", 0.92]
]}
